Target: bacterial α-glucosidase CjAgd31B (Cellvibrio japonicus, UniProt B3PEE6)
Sequence (B3PEE6 25-816): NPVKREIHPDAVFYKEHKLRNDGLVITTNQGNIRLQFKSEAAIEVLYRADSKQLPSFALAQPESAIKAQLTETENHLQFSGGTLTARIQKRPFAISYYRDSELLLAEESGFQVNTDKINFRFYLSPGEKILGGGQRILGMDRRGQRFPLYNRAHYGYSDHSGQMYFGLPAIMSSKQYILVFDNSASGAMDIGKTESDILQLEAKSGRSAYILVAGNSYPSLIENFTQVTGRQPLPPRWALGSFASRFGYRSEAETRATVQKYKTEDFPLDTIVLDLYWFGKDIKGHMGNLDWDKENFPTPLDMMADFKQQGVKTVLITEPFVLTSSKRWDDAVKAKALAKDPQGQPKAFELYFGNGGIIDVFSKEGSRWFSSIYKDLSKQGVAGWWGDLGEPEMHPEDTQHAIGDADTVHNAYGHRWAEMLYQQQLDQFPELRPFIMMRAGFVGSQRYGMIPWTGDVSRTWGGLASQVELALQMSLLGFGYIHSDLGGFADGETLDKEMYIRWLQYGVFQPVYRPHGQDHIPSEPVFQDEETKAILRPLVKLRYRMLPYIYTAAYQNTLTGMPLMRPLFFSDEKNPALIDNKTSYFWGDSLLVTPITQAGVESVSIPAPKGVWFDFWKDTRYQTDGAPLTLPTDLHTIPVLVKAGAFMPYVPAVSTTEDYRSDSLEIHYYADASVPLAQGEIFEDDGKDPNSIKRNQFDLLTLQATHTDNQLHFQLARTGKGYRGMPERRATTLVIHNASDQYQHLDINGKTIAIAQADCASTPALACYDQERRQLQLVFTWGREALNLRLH
Assay: thermal shift assay of CjAgd31B with Sypro Orange dye
Conditions: 2 μM CjAgd31B; 0-1000 μM inhibitor; pH 6.5; read-out: EC50 of thermal stabilization
pEC50: −log10 of the molar value.
QUANTITY MEASURED: pEC50

| COMPOUND | RECORDED RESULT |
| --- | --- |
| O=S1(=O)N[C@@H]2[C@H](O)[C@@H](O)[C@H](O)[C@@H](CO)[C@@H]2O1 [compound 4, 1,6-epi-cyclophellitol cyclosulfamidate] | 3.87 |

* * *

biological target: ER α-glucosidase II (GANAB) (Homo sapiens); construct: GANAB (from Pompe Disease Fibroblast Lysates); endogenous in cells; assay: in vitro apparent IC50, GANAB in fibroblast lysates, 4-MU-α-D-glucopyranoside; details: apparent IC50; Pompe disease fibroblast lysates; pH 7.0; mean ± SD
Sequence (Q14697 29-944): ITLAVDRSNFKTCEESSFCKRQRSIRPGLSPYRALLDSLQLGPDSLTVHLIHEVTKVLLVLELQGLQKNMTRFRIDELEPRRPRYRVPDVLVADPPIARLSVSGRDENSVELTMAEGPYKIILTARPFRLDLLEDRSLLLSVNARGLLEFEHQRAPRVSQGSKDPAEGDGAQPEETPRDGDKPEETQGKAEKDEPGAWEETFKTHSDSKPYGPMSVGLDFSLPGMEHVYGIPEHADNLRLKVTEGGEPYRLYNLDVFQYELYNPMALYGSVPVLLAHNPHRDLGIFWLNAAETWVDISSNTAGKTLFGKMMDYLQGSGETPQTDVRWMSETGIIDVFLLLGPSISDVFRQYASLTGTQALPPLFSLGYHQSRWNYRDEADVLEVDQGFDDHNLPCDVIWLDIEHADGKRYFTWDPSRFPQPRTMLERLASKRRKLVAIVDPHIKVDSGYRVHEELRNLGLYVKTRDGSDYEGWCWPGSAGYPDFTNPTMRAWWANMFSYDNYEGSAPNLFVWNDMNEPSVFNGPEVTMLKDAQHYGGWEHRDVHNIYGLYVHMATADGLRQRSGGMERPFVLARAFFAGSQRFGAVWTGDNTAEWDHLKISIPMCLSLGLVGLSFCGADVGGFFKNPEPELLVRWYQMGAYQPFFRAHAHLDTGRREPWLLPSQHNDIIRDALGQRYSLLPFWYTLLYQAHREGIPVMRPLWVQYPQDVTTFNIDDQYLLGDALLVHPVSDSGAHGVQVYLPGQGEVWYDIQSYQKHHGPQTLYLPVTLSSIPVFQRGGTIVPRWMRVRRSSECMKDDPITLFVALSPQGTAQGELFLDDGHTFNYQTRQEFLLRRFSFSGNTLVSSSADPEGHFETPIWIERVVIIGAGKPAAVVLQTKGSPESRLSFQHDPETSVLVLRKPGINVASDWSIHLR
Sequence (P14314 15-528 partner): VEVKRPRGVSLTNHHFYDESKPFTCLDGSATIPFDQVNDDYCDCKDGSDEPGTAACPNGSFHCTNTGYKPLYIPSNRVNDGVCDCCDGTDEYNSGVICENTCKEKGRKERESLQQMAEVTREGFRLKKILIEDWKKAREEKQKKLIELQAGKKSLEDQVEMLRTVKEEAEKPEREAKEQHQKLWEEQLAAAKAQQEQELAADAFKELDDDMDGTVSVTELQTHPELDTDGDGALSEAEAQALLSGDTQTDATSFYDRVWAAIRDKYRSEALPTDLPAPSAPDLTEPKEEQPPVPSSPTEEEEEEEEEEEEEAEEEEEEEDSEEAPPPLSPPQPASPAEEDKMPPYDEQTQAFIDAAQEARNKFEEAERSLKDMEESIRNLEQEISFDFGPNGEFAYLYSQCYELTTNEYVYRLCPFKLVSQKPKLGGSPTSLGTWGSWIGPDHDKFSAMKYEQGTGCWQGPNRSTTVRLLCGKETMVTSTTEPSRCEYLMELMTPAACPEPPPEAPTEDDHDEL
pIC50: −log10 of the molar value.
QUANTITY MEASURED: pIC50

| COMPOUND | QUANTITY MEASURED | COMPARATIVE SIGN | RECORDED RESULT |
| --- | --- | --- | --- |
| O=S1(=O)N[C@@H]2[C@H](O)[C@@H](O)[C@H](O)[C@@H](CO)[C@@H]2O1 [compound 4, 1,6-epi-cyclophellitol cyclosulfamidate] | pIC50 | = | 3.30 |
| CN1[C@@H]2[C@H](O)[C@@H](O)[C@H](O)[C@@H](CO)[C@@H]2OS1(=O)=O [compound 5] | pIC50 | < | 3.30 |
| O=S1(=O)N[C@H]2[C@H](CO)[C@@H](O)[C@H](O)[C@@H](O)[C@H]2O1 [compound 6] | pIC50 | = | 4.33 |
| CCCCN1C[C@H](O)[C@@H](O)[C@H](O)[C@H]1CO [compound 2, N-butyldeoxynojirimycin, reference compound] | pIC50 | = | 3.82 |
| O=S1(=O)O[C@@H]2[C@H](O)[C@@H](O)[C@H](O)[C@@H](CO)[C@@H]2O1 [compound 3, 1,6-epi-cyclophellitol cyclosulfate, reference compound] | pIC50 | = | 7.59 |
| O=S1(=O)N[C@@H]2[C@H](O)[C@@H](O)[C@H](O)[C@@H](CO)[C@@H]2N1 [compound 8] | pIC50 | < | 3.30 |
| CN1[C@H]2[C@H](CO)[C@@H](O)[C@H](O)[C@@H](O)[C@H]2OS1(=O)=O [compound 7] | pIC50 | = | 3.88 |
